system: CCRIS mutagenicity, Ames/micronucleus/aberration tests; assay: CCRIS mutagenicity studies; details: Test System: AMES SALMONELLA TYPHIMURIUM; Strain/Indicator: TA98; Metabolic Activation: NONE; Method: STANDARD PLATE
The source made the active and inactive calls. The rule behind the calls is not given here.
Classes used: active, inactive

[[record]]
compound = "CNNCc1ccc(C(=O)NC(C)C)cc1"
target_system = "CCRIS mutagenicity, Ames/micronucleus/aberration tests"
qualitative_label = "inactive"

[[record]]
compound = "O=C1CNC(=O)N1"
target_system = "CCRIS mutagenicity, Ames/micronucleus/aberration tests"
qualitative_label = "inactive"

[[record]]
compound = "O=C/C=C/c1ccccc1"
target_system = "CCRIS mutagenicity, Ames/micronucleus/aberration tests"
qualitative_label = "inactive"

[[record]]
compound = "O=C(Nc1cccc(Cl)c1)c1csc([N+](=O)[O-])c1"
target_system = "CCRIS mutagenicity, Ames/micronucleus/aberration tests"
qualitative_label = "active"

[[record]]
compound = "COc1cc([N+](=O)[O-])c(O)c(C(C)(C)C)c1"
target_system = "CCRIS mutagenicity, Ames/micronucleus/aberration tests"
qualitative_label = "inactive"

[[record]]
compound = "Cc1ccc(NC(=O)c2csc([N+](=O)[O-])c2)cc1"
target_system = "CCRIS mutagenicity, Ames/micronucleus/aberration tests"
qualitative_label = "active"

[[record]]
compound = "CC(=O)N(CC(O)CN(C(C)=O)c1c(I)c(C(=O)NCC(O)CO)c(I)c(C(=O)NCC(O)CO)c1I)c1c(I)c(C(=O)NCC(O)CO)c(I)c(C(=O)NCC(O)CO)c1I (configuration not stated)"
target_system = "CCRIS mutagenicity, Ames/micronucleus/aberration tests"
qualitative_label = "inactive"

[[record]]
compound = "Cc1cc(=O)n(-c2ccccc2)n1C"
target_system = "CCRIS mutagenicity, Ames/micronucleus/aberration tests"
qualitative_label = "inactive"

[[record]]
compound = "CC(=O)Nc1snc2c(Cl)cc(Cl)cc12"
target_system = "CCRIS mutagenicity, Ames/micronucleus/aberration tests"
qualitative_label = "inactive"

[[record]]
compound = "CCOC(=O)CC(SP(=S)(OC)OC)C(=O)OCC (configuration not stated)"
target_system = "CCRIS mutagenicity, Ames/micronucleus/aberration tests"
qualitative_label = "inactive"

[[record]]
compound = "CC(=O)N1CCC[C@H]1C(=O)N(CC(=O)O)N=O"
target_system = "CCRIS mutagenicity, Ames/micronucleus/aberration tests"
qualitative_label = "inactive"

[[record]]
compound = "Cn1c2ccccc2c2ccccc21"
target_system = "CCRIS mutagenicity, Ames/micronucleus/aberration tests"
qualitative_label = "inactive"


====

test system: CCRIS mutagenicity, Ames/micronucleus/aberration tests; experiment: CCRIS mutagenicity studies; conditions: Test System: AMES SALMONELLA TYPHIMURIUM; Strain/Indicator: TA1537; Metabolic Activation: RAT, LIVER, S-9, AROCLOR 1254; Method: STANDARD PLATE
Active and inactive are the calls of the source. The rule behind the calls is not given here.
Classes used: active, inactive

[[record]]
molecule = "Cn1cnc2c1c(=O)[nH]c(=O)n2C"
qualitative_label = "inactive"

[[record]]
molecule = "CC1(C)[C@@H]2CC[C@@]1(C)C(=O)C2=O"
qualitative_label = "inactive"

[[record]]
molecule = "[Cl][Cr]([Cl])[Cl]"
qualitative_label = "inactive"

[[record]]
molecule = "O=c1oc2cc(O)ccc2c2oc3cc(O)ccc3c12"
qualitative_label = "inactive"

[[record]]
molecule = "C/C=C\\c1ccc(OC)cc1OC"
qualitative_label = "inactive"

[[record]]
molecule = "O=C(O)c1cc(Br)cc2cccnc12"
qualitative_label = "inactive"

[[record]]
molecule = "COc1cc(NC(C)CCCN)c2ncccc2c1 (configuration not stated)"
qualitative_label = "active"

[[record]]
molecule = "ClC(Br)Br"
qualitative_label = "active"

[[record]]
molecule = "O=C1C[C@H](O)[C@@H]2c3c(ccc(O)c31)-c1ccc(O)c3c1[C@@]2(O)CCC3=O"
qualitative_label = "active"

[[record]]
molecule = "CCCCCCCCSCn1cc[n+](C)c1"
qualitative_label = "inactive"

[[record]]
molecule = "Cc1cc(/C=C/c2ccc3cc(N(C)C)ccc3[n+]2C)c(C)n1-c1ccccc1"
qualitative_label = "inactive"

[[record]]
molecule = "FC(F)C(F)(F)F"
qualitative_label = "inactive"

[[record]]
molecule = "Oc1cccc2cccnc12"
qualitative_label = "active"

[[record]]
molecule = "Cc1cc(S(=O)(=O)O)ccc1N"
qualitative_label = "inactive"

[[record]]
molecule = "Nc1ccccc1C(F)(F)F"
qualitative_label = "inactive"

[[record]]
molecule = "O=C/C=C/c1ccccc1"
qualitative_label = "inactive"

[[record]]
molecule = "CCOc1ccc(NC(C)=O)cc1"
qualitative_label = "inactive"

[[record]]
molecule = "O=C1c2ccccc2C(=O)c2c1cc(O)c(O)c2O"
qualitative_label = "active"

[[record]]
molecule = "OCCCc1ccccc1"
qualitative_label = "inactive"

[[record]]
molecule = "CC(=O)N(CC(O)CN(C(C)=O)c1c(I)c(C(=O)NCC(O)CO)c(I)c(C(=O)NCC(O)CO)c1I)c1c(I)c(C(=O)NCC(O)CO)c(I)c(C(=O)NCC(O)CO)c1I (configuration not stated)"
qualitative_label = "inactive"

[[record]]
molecule = "Cc1ccc(C(C)(C)C)c(O)c1C(O)c1ncc([N+](=O)[O-])n1C (configuration not stated)"
qualitative_label = "inactive"

[[record]]
molecule = "CCN(CC)c1ccc(N=Nc2ccc([N+](=O)[O-])cc2C#N)cc1"
qualitative_label = "active"

[[record]]
molecule = "O=S(=O)(Oc1ccc(Cl)c(Cl)c1)c1cccc2cccnc12"
qualitative_label = "inactive"

[[record]]
molecule = "CCCCC(CC)COC(=O)c1ccc(C(=O)O)cc1 (configuration not stated)"
qualitative_label = "inactive"

[[record]]
molecule = "CCOC(=O)C(Cl)C(C)=O (configuration not stated)"
qualitative_label = "inactive"

[[record]]
molecule = "CC(=O)CC(C)(C)O"
qualitative_label = "inactive"

[[record]]
molecule = "O=[N+]([O-])c1ccc(N=Nc2ccc(N(CCO)CCO)cc2)c([N+](=O)[O-])c1"
qualitative_label = "active"

